Target: human prostanoid IP receptor (Homo sapiens, UniProt P43119)
Construct: expressed in transfected cells
Sequence (P43119 whole entry): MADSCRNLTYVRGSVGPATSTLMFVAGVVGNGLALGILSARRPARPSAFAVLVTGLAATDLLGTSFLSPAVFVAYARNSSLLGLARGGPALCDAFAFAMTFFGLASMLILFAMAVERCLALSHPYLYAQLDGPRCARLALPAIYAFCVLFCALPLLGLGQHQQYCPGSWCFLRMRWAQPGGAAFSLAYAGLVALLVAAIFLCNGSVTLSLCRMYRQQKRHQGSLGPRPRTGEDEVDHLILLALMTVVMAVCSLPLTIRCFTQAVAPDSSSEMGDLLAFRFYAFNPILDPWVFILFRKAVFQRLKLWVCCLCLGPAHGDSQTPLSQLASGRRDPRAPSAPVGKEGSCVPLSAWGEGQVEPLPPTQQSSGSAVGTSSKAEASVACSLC
Experiment: FLIPR Ca2+ signaling antagonist assay, IP receptor stable cell line
Type: cell-based
Conditions: HEK-293 EBNA stable cell line; standard agonist Cicaprost; NA = inactive (no antagonism or Kb 10,000 nM); PAg, Ag not defined
observed.property: Kb (nM)

A selection of reference data follows.
>>> result_value("Cc1cc(CCC(=O)NS(=O)(=O)CC(F)(F)F)nn1Cc1cc(Cl)ccc1OCc1ccc(Cl)cc1")
7900
>>> result_value("Cc1cc(CCC(=O)NS(=O)(=O)C(F)(F)F)nn1Cc1cc(Cl)ccc1CCC1CCCC1")
1900
>>> result_value("CCC(CC)COc1ccc(C(C)(C)C)cc1Cn1nc(CCC(=O)O)cc1C")
2500

A = CCC(CC)COc1ccc(C#N)cc1Cn1nc(CCC(=O)O)cc1C
B = Cc1cc(CCC(=O)NS(=O)(=O)C(F)(F)F)nn1Cc1cc(Cl)ccc1OCc1ccc(Cl)cc1Cl
Between A and B , which one shows the larger Kb value? Response format: the label of the selected entry.
A

a = CCC(C)CCOc1ccc(Cl)cc1Cn1nc(CCC(=O)O)cc1C (stereo not drawn)
b = CCC(CC)COc1ccc(C)cc1Cn1nc(CCC(=O)O)cc1C
// which entry has the larger Kb value, a or b ? I would appreciate it if you answered with the label of your choice.
a
(a: 5200 nM, b: 2300 nM)

a = Cc1cc(CCCCC(=O)O)nn1Cc1cc(Cl)ccc1OCC1CCCC1
b = CCC(CC)COc1ccc(-c2ccccc2)cc1Cn1nc(CCC(=O)O)cc1C
c = Cc1cc(CCC(=O)O)nn1Cc1cc(OC(F)(F)F)ccc1OCC1CCCC1
Please rank these compounds by Kb in descending order. Would you mind listing the labels in the order requested?
a, b, c
